# System: U251 CNS
# ASSAY: NCI tumour cell line growth inhibition, 48 h

COMPOUND	TGI
COc1ccc(OC)c(/C=C/c2nnc(Nc3ccc(Cl)cc3)o2)c1	14.3 µM
COc1ccc(C(=S)c2cc(OC)c(OC)c(OC)c2)cc1OC(=O)CCl	> 100 µM
CO/C(=N/N1CC1C(F)(F)F)c1ccncc1 (centres undefined)	> 100 µM
O=C1C(=O)c2cc([N+](=O)[O-])ccc2-c2ccccc21	2.7 µM
O=C(NO)c1cccc(OCc2ccc(Br)cc2)c1	> 53.8 µM
O=S(=O)(O)c1cc(S(=O)(=O)O)c2c(N=Nc3cccc4ccccc34)c(O)ccc2c1	> 100 µM
CC(=O)OCc1nc(C#N)c(N)o1	> 100 µM
Nn1c(CCCl)nc2c(Br)cc(Br)cc2c1=O	> 58 µM
C[C@H]1CCC/C=C/[C@@H]2C[C@H](O)C[C@H]2[C@H](O)[C@H](S(=O)c2ccc(O)cc2)CC(=O)O1 (some centres undefined)	> 77.4 µM
O=S(=O)(/C=C/C=C/S(=O)(=O)c1ccccc1)c1ccccc1	11 µM
CC(N)Cc1cccc(C(F)(F)F)c1 (centres undefined)	> 100 µM
c1ccc(N/N=C2\CC(c3ccccc3)Oc3ccccc32)cc1 (centres undefined)	> 100 µM
N#CN=Nc1cc(Cl)c(N=NC#N)cc1Cl	> 100 µM
O=C(O)C(Cc1cccs1)NC(=O)C(F)(F)F (centres undefined)	> 100 µM
CN(CCc1ccc(Br)cc1)CCN1CCCCC1	> 100 µM
COc1cccc2c1C(=O)C(=O)c1c-2oc(=O)c2cc(C)cc(OC)c12	23.2 µM
COc1cc(CC2CCc3nc(N)nc(N)c3C2)cc(OC)c1OC (centres undefined)	> 100 µM
Cn1c(=O)n(-c2c3ccccc3c(Cl)c3ccccc23)n(C(C)(C)C)c1=O	> 100 µM
CCc1cc(-c2nsc(=O)o2)c(S(=O)(=O)CC)s1	> 100 µM
COC(=O)/C=C\c1ccc2c(c1)CC1(C2)Cc2ccc(/C=C/C(=O)OC)cc2C1 (centres undefined)	> 31.6 µM
CC(=O)N1NC(c2ccccc2)=CC(=O)/C1=C/C(=O)c1ccccc1	> 100 µM
CC(=O)O[C@H]1C(=O)[C@@]2(C)C(C(OC(=O)c3ccccc3)[C@]3(O)CC(OC(=O)C(O)C(NC(=O)c4ccccc4)c4ccc(F)cc4)C(C)=C1C3(C)C)[C@]1(OC(C)=O)CO[C@@H]1C[C@@H]2O (some centres undefined)	> 10 µM
CC(=O)OCC1OC(n2c(C)c(N=Nc3ccc(C)cc3)c(C)c(C#N)c2=S)C(OC(C)=O)C(OC(C)=O)C1OC(C)=O (centres undefined)	> 100 µM
CCCC(OCC)(OCC)OCC	> 100 µM
CCOC(=O)Cn1c(=O)c2nc(SC)sc2n(-c2ccc(C)cc2)c1=S	71.6 µM
CCCCCCCC[N+](C)(C)Cc1ccc(C[N+](C)(C)CCCCCCCC)cc1	> 100 µM
O=c1c2cccnc2[nH]c2ccc3scnc3c12	> 10 µM
CCOC(=O)Cc1ccc(Nc2nc3cc(C(F)(F)F)ccc3nc2C(=O)OCC)cc1	> 100 µM
N#Cc1c(C#N)c(-c2cccc([N+](=O)[O-])c2)n(-c2ccccc2)c1N	> 100 µM
O=S(=O)(NCCNc1cc(-c2cn(-c3ccccc3)nc2-c2cccc(O)c2)ccn1)c1ccc(C(F)(F)F)cc1	7.28 µM
COC(=O)[C@H](CCSC)NC(=O)c1ccc(CNC(=O)/C=C/c2cccc(Oc3ccccc3)c2)cc1	> 100 µM
O=C1CCC(=O)N1CNc1ccc2c(c1)Sc1ccccc1O2	> 100 µM
CC1CCCOc2ccc(cc2)C=Nc2ccc(cc2)CCc2ccc(cc2)N=Cc2ccc(cc2)OCCC1 (centres undefined)	> 100 µM
NCC(=O)C(O)C(O)C(O)CO (centres undefined)	> 100 µM
COc1ccc(-c2coc3ncnc(N)c23)cc1	> 25 µM
CSc1ccc(-c2cn3ccsc3n2)c(O)c1	> 100 µM
C/C(CC(=O)CCCC(=O)Nc1ccc(Cl)cc1Cl)=N/NC(=O)CC#N	> 100 µM
CCCCCCN(CCCCCC)C(=N)c1ccnc2ccccc12	10.9 µM
CCCCOC(=O)CN1C(=O)c2ccccc2C1=O	> 100 µM
Nc1nc(N)c2nc(CNc3ccc(C(=O)CC(CCC(=O)O)C(=O)O)cc3)cnc2n1 (centres undefined)	> 100 µM
NC(=O)/N=C(\N)NC(=O)c1ccccc1	> 100 µM
Cc1cc(Cl)nc(NC(=O)CSc2ccc(Cl)cc2)n1	> 100 µM
CS(=O)(=O)c1nc(N)nc2nc[nH]c12	> 100 µM
COc1ccccc1/C=C/C(=O)c1sc(-c2cccnc2)nc1C	> 100 µM
